From: the supplement of paper PMC10567573

B1: MMP1 (parent)
chain: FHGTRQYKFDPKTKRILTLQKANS

# Variants of: B1
# ASSAY REMARKS: protein stability index of a GFP-peptide fusion (GPS, HEK-293T) (PSI 1-6); higher = more stable;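 note: lentivirally expressed fusions sorted by FACS into six bins by GFP to DsRed ratio, PSI derived from sequencing read proportions per bin multiplied by bin number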
# MEASUREMENT CONTEXT: c terminus: a fixed tail appended
Give measured protein stability index for each item. Keep answers brief.
One number for each entry.

Solved entries:
VAR	protein stability index
L17C	2.02
L19I	2.05
R5E	2.02
G3Y	1.96

Answer for every listed entry: what is its protein stability index? The entries follow.
1. K21A
2. K12Q
3. F9H
4. R5V

Result:
2.02
2.04
1.98
2.04

Answer for every listed entry: what is its protein stability index? The entries follow.
1. K12I
2. T18A
3. L19S

Result:
1. 1.95
2. 2.05
3. 2.03
